Property: MCC; scope: individual compounds
Test: in vitro
Details: human, hela cells

Below: 2 compounds and their reported MCC.
1) CS(=O)(=O)c1ccc(Oc2ccc(Cl)c(Cl)c2)nc1C#N [Example 32]
> 12.5 µg/mL
2) CCCSc1ccc(Oc2ccc(Cl)c(Cl)c2)c(C#N)n1 [Example 35]
50 µg/mL

Please examine the following record next.
Summary for this compound, CCCSc1ccc(Oc2ccc(Cl)c(Cl)c2)nc1C#N [Example 34] : MCC is > 50 µg/mL

---

Each item that follows carries a reported MCC.
Experiment: in vitro
Settings: human, hela cells

1) CSc1ccc(Oc2ccc(Cl)c(Cl)c2)nc1C#N
> 50 µg/mL

# compound CCSc1cc(C#N)c(Oc2ccc(Cl)c(Cl)c2)cn1 ; its MCC = 50 µg/mL

The reported MCC of the compound CCSc1ccc(Oc2ccc(C(=O)c3ccccc3)cc2)nc1C#N was 50 µg/mL

Measured MCC, CCSc1cnc(Oc2ccc(Cl)c(Cl)c2)cc1C#N : 50 µg/mL

// CSc1cc(C#N)c(Oc2ccc(Cl)c(Cl)c2)cn1 : MCC value = > 50 µg/mL

// MCC lookup, compound = CC[S+]([O-])c1ccc(Oc2ccc(Cl)c(Cl)c2)nc1C#N (stereo not drawn) , result: 50 µg/mL

Looking up CCCCSc1ccc(Oc2ccc(Cl)c(Cl)c2)nc1C#N , I found its MCC recorded as > 25 µg/mL

Entry C[S+]([O-])c1ccc(Oc2ccc(Cl)c(Cl)c2)nc1C#N (stereo not drawn) ; MCC = > 50 µg/mL

---

Tested on: rhinovirus type 1A (RV-1A)
Test: Tissue culture testing, reduction of viral cytopathic effect, RV-1A
Type: cell-based
Details: Enterovirus; HeLa cells; RV-1A; 48 and 72 hours; read-out: Lowest concentration of the compound necessary to cause a 50 percent reduction in cytopathic effect, RV-1A
Value type: EC50

The compound identified as CCSc1cc(C#N)c(Oc2ccc(Cl)c(Cl)c2)cn1 registered its EC50 at > 50 µg/mL

EC50 in this record for CCCCSc1ccc(Oc2ccc(Cl)c(Cl)c2)c(C#N)n1 : > 25 µg/mL

EC50 reading for CCSc1cnc(Oc2ccc(Cl)c(Cl)c2)c(C#N)c1 : > 50 µg/mL

# compound CCSc1cnc(Oc2ccc(Cl)c(Cl)c2)cc1C#N ; its EC50 = > 50 µg/mL

EC50 recorded for this compound, CSc1cc(C#N)c(Oc2ccc(Cl)c(Cl)c2)cn1 , is > 50 µg/mL

Record summary for CC(C)Sc1ccc(Oc2ccc(Cl)c(Cl)c2)nc1C#N : reported EC50 = ≤ 1.56 µg/mL

---

Test: in vitro
Details: human, hela cells
Value type: MCC

Per the record, CCC(C)Sc1ccc(Oc2ccc(Cl)c(Cl)c2)nc1C#N (stereo not shown) [Example 40] has MCC of > 25 µg/mL

The compound identified as CC(C)Sc1ccc(Oc2ccc(Cl)c(Cl)c2)nc1C#N [Example 36] registered its MCC at 12.5 µg/mL

// sample CC(C)CSc1ccc(Oc2ccc(Cl)c(Cl)c2)c(C#N)n1 [Example 43] , its MCC was ≥ 25 µg/mL

The compound identified as CC(C)CSc1ccc(Oc2ccc(Cl)c(Cl)c2)nc1C#N [Example 42] registered its MCC at > 25 µg/mL

MCC for CCSc1cnc(Oc2ccc(Cl)c(Cl)c2)c(C#N)c1 [Example 28] is > 50 µg/mL

---

Assay: in vitro
Settings: human, hela cells
Reported values of MCC for individual entries

The examples below pair each entry with its known result.
1. C[S+]([O-])c1ccc(Oc2ccc(Cl)c(Cl)c2)nc1C(N)=O (centres unmarked) [Example 30]
25 µg/mL
2. CCSc1ccc(Oc2ccc(Cl)c(Cl)c2)c(C#N)n1 [Example 21]
2.5 µg/mL
3. CCC(C)Sc1ccc(Oc2ccc(Cl)c(Cl)c2)c(C#N)n1 (centres unmarked) [Example 41]
> 25 µg/mL
4. CCSc1ccc(Oc2ccc(Cl)c(Cl)c2)nc1C#N [Example 20]
> 12.5 µg/mL
5. CCSc1ncc(Oc2ccc(Cl)c(Cl)c2)cc1C#N [Example 27]
> 50 µg/mL

The reported value for CCCCSc1ccc(Oc2ccc(Cl)c(Cl)c2)c(C#N)n1 [Example 39] in terms of MCC is ≥ 25 µg/mL

Entry CC(C)Sc1ccc(Oc2ccc(Cl)c(Cl)c2)c(C#N)n1 [Example 37] ; MCC = ≥ 25 µg/mL

MCC in this record for CCS(=O)(=O)c1ccc(Oc2ccc(Cl)c(Cl)c2)nc1C#N [Example 33] : 50 µg/mL
